// pEC50 lookup, one value per entry
System tested: Multidrug resistance-associated protein 1 (Homo sapiens, UniProt P33527)
Sequence (P33527 whole entry): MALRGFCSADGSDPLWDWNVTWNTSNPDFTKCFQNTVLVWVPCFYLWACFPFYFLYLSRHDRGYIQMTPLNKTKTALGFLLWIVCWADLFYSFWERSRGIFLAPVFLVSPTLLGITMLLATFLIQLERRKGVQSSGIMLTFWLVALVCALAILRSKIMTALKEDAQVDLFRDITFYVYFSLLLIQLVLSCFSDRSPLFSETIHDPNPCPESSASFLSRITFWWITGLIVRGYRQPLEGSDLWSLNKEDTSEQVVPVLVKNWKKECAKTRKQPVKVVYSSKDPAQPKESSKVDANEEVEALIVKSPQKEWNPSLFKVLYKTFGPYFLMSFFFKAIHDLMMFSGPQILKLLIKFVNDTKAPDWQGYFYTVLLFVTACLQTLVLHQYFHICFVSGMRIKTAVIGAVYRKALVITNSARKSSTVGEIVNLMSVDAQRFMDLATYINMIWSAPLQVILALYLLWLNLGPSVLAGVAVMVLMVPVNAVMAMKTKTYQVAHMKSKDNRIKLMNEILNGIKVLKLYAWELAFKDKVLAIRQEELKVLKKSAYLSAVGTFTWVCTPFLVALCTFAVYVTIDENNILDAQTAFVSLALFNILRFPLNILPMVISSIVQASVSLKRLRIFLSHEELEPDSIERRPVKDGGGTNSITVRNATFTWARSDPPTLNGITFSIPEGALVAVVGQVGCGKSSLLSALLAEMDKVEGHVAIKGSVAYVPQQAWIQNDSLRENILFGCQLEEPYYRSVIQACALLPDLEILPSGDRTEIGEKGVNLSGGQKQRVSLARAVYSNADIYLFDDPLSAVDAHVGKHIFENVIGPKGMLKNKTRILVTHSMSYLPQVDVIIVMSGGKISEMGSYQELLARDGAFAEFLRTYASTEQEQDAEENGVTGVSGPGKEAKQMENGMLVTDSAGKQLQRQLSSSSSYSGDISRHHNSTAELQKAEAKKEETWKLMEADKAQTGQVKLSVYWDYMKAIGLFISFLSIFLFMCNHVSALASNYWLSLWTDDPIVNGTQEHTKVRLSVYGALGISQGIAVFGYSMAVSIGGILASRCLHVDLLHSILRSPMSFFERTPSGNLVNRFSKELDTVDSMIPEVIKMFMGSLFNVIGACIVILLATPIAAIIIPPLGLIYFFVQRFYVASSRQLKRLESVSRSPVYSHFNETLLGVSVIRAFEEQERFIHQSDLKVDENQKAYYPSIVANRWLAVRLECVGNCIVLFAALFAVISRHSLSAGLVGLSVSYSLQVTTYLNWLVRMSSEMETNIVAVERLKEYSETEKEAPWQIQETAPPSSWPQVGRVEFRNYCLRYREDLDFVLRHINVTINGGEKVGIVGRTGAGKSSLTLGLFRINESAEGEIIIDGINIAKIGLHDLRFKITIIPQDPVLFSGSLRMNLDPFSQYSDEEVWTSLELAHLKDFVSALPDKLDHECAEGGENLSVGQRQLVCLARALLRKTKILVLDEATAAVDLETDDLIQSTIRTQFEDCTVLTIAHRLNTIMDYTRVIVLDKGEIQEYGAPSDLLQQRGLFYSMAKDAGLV
Protocol details: Inhibitory activity against MRP1 in HeLa-T5 cells
A value of pEC50 is the negative decimal logarithm of a concentration given in moles per litre.

Use these answered entries as a reference point.
{"Compound": "Cc1onc2c1c(=O)n([C@H]1CCC[C@@H](CNC(=O)c3ccccc3)C1)c1cccc(Cl)c21 (racemic)", "Result value": 6.74}
{"Compound": "COc1cc(C(=O)NC[C@H]2CCC[C@H](n3c(=O)c4c(C)onc4c4c(Cl)cccc43)C2)cc(OC)c1OC (racemic)", "Result value": 6.38}
{"Compound": "COc1cc(C(=O)NC[C@@H]2CCC[C@H](n3c(=O)c4c(C)onc4c4c(Cl)cccc43)C2)cc(OC)c1OC (racemic)", "Result value": 6.60}

Next:
Enquiry: Please look up its pEC50: Cc1onc2c1c(=O)n([C@H]1CCC[C@H](CNC(=O)c3ccccc3)C1)c1cccc(Cl)c21 (racemic)
Return: 6.19
